test system: human lung cancer cell line H1299; experiment: Inhibition of cell proliferation (GI50), H1299; assay type: cell-based; conditions: NCI-H1299, H1299 cells, 48 h, CellTiter-Glo
Mark Met only when GI50 stays strictly below 300 nM. Values equal to the cut-off are Not met.

Example entries begin here.
> print(dat)
                              record.smiles    label
1  COc1ccc(C2=Nn3c(nnc3-c3ccc(Cl)cc3Cl)SC2)cc1OC      Met
2  COc1ccc(C2=Nn3c(nnc3-c3ccccc3OC)SC2)cc1OC      Met
3  CCOc1ccc(C2=Nn3c(nnc3-c3ccc(Cl)cc3)SC2)cc1      Met
4   COc1ccccc1-c1nnc2n1N=C(c1ccc(Br)cc1)CS2      Met
5  COc1ccc(C2=Nn3c(nnc3-c3cc(OC)c(OC)c(OC)c3)SC2)cc1OC  Not met
6  Clc1ccccc1-c1nnc2n1N=C(c1ccc3c(c1)OCO3)CS2      Met

Item CCOc1cccc(-c2nnc3n2N=C(c2ccc(O)c(O)c2)CS3)c1 : GI50 beneath 300 nM, strictly?
Not met

Consider the compound Cc1ccccc1-c1nnc2n1N=C(c1ccc3c(c1)OCO3)CS2 . Is its GI50 strictly less than 300 nM?
Met

Problem: For the compound COc1ccc(C2=Nn3c(nnc3-c3ccccc3C)SC2)cc1OC , is GI50 under 300 nM?
Not met

Please let me know if COc1ccc(C2=Nn3c(nnc3-c3ccc(OC)c(OC)c3)SC2)cc1OC shows GI50 below 300 nM.
Not met

Determine whether this compound shows GI50 lower than 300 nM (ties excluded): COc1ccc(C2=Nn3c(nnc3-c3ccc(Cl)cc3)SC2)cc1
Met

Quick check: does COc1ccc(C2=Nn3c(nnc3-c3ccccc3Cl)SC2)cc1OC have GI50 under 300 nM?
Not met

Check if GI50 falls below 300 nM for Cc1cccc(-c2nnc3n2N=C(c2ccc4c(c2)OCO4)CS3)c1 .
Not met

Below 300 nM on GI50? Entry COc1cc(-c2nnc3n2N=C(c2ccc4c(c2)OCO4)CS3)cc(OC)c1OC
Met

----------
Exercise: for every item that follows, state its recorded GI50.
System: multi-drug resistant (MDR) human sarcoma cell line MES-SA/ADR
Experiment: Inhibition of cell proliferation (GI50), MES-SA/ADR
Type: cell-based
Conditions: MES-SA/ADR multi-drug resistant cells
Method: Human breast cancer cell lines T-47D, human hepatocellular carcinoma cell line SNU398, human colon carcinoma cell line HCT116, human lung cancer cell line H1299, human leukemia cell line K562, human lymphoma cell line Raji, human B cell lymphoblastoid cell line Ramos, and human Burkitt's lymphoma cell line Namalwa were grown and harvested as in Example 100. […] Plates were then read using a luminescent plate reader (Model SPECTRAfluor Plus, Tecan) to give Ltest values. […]
One number for each entry, in nM.

For orientation, consider the following solved cases.
> print(dat)
                                   compound                     target.or.test.system  measurement.type  value.measured
1  COc1ccc(C2=Nn3c(nnc3-c3cccc(OC)c3)SC2)cc1 [Example X]  multi-drug resistant (MDR) human sarcoma cell line MES-SA/ADR              GI50             196
2  COc1cc(-c2nnc3n2N=C(c2ccc4c(c2)OCO4)CS3)cc(Cl)c1OC [Example 4]  multi-drug resistant (MDR) human sarcoma cell line MES-SA/ADR              GI50              28

// for each compound below, give its GI50
1. COc1cc(-c2nnc3n2N=C(c2ccc4c(c2)OCO4)CS3)cc(OC)c1OC [Example M1]
2. COc1ccc(C2=Nn3c(nnc3-c3cc(OC)c(OC)c(OC)c3)SC2)cc1 [Example A2]
3. COc1cc(OC)cc(-c2nnc3n2N=C(c2ccc4c(c2)OCO4)CS3)c1 [Example 2]
4. COc1ccccc1-c1nnc2n1N=C(c1ccc3c(c1)OCO3)CS2 [V]

1. 25
2. 63
3. 154
4. 123
